Items are presented alongside their recorded log10(IC50).
# Test system: PANC-1
# assay notes: cells
# test parameters: Homo sapiens, PANC-1, 72 h, read-out: PANC-1 IC50 (µM)
Heads up: the numbers are on a log10 scale; they represent IC50 in µM.

{"columns": ["compound", "target desc", "log10(IC50)"],
 "data": [
  ["CSc1cc(F)ccc1-c1ccc(C(=O)N(C)CC2CCCCC2)c(S(C)(=O)=O)c1 [2e]", "PANC-1", -1.03],
  ["COc1cnccc1-c1ccc(C(=O)N(C)CC2CCCCC2)c(S(C)(=O)=O)c1 [2d]", "PANC-1", -0.10],
  ["Cc1ccccc1-c1ccc(C(=O)N(C)CC2CCCCC2)c(S(C)(=O)=O)c1 [2c]", "PANC-1", 0.21],
  ["CSc1ccccc1-c1ccc(C(=O)N(C)CC2CCCCC2(F)F)c(S(C)(=O)=O)c1 (centres unmarked) [2a, Compound 2a]", "PANC-1", -0.48]
]}

For CN(CC1CCCCC1)C(=O)c1ccc(-c2ccccc2F)cc1S(C)(=O)=O [2b, Compound 2b] , what is its reported log10(IC50)?
0.71

----------
# target desc: TRIM21^PRY-SPRY (287-465aa) (Homo sapiens)
# assay notes: SPR
# Type: binding
Items are presented alongside their recorded Kd.
Respond numerically; units are nM and should not be typed.

Examples with their reported Kd follow.
{"columns": ["compound", "Kd, nM"],
 "data": [
  ["CCc1ccccc1CN(C)C(=O)c1ccc(-c2ccccc2SC)cc1S(C)(=O)=O", 581],
  ["CSc1ccccc1-c1ccc(C(=O)N(C)Cc2ccon2)c(S(C)(=O)=O)c1", 171],
  ["CSc1ccccc1-c1ccc(C(=O)N(C)CC2CCCCC2(F)F)c(S(C)(=O)=O)c1 (stereo not shown)", 234]
]}

Continue with the next compound.
For Cc1ccccc1-c1ccc(C(=O)N(C)CC2CCCCC2)c(S(C)(=O)=O)c1 , what is its reported Kd?
610

----------
Items are presented alongside their recorded log10 of Kd.
# target desc: TRIM21^PRY-SPRY (287-465aa) (Homo sapiens)
# assay notes: SPR
# Format: binding
Heads up: the numbers are on a log10 scale; they represent Kd in nM.

For CN(CC1CCCCC1)C(=O)c1ccc(-c2ccccc2F)cc1S(C)(=O)=O , what is its reported log10 of Kd?
3.33

----------
# target desc: TRIM21^PRY-SPRY (287-465aa) (Homo sapiens, UniProt P19474)
# Sequence (P19474 287-465): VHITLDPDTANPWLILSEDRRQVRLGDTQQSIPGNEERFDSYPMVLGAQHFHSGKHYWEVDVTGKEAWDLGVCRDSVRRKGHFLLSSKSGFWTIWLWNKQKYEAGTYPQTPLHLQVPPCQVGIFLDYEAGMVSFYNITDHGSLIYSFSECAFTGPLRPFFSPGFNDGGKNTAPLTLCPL
# assay notes: SPR
# Assay type: binding
quantity name: pKd
Interpret pKd as the negative base-10 log of the concentration measured in mol/L.

Examples with their reported pKd follow.
{"columns": ["compound", "target desc", "pKd"],
 "data": [
  ["CSc1ccccc1-c1ccc(C(=O)N(C)Cc2cc[nH]c2)c(S(C)(=O)=O)c1", "TRIM21^PRY-SPRY (287-465aa) (Homo sapiens, UniProt P19474)", 7.77],
  ["CSc1ccccc1-c1ccc(C(=O)N(C)CC2CCOCC2)c(S(C)(=O)=O)c1", "TRIM21^PRY-SPRY (287-465aa) (Homo sapiens, UniProt P19474)", 7.54],
  ["CSc1ccccc1-c1ccc(C(=O)N(C)CC2CCOC2)c(S(C)(=O)=O)c1 (stereo not drawn)", "TRIM21^PRY-SPRY (287-465aa) (Homo sapiens, UniProt P19474)", 6.46]
]}

For CSc1ccccc1-c1ccc(C(=O)N(C)Cc2cc[nH]c(=O)c2)c(S(C)(=O)=O)c1 , what is its reported pKd?
7.96

For CSc1ccccc1-c1ccc(C(=O)N(C)CC2CCCCC2)c(S(C)(=O)=O)c1 , what is its reported pKd?
6.91

For COc1cnccc1-c1ccc(C(=O)N(C)CC2CCCCC2)c(S(C)(=O)=O)c1 , what is its reported pKd?
5.80
